Hey, just so you know, these numbers are from paper PMC3461841.

- ASSAY TARGET: FL-hDicer (full-length human Dicer) (Homo sapiens, UniProt Q9UPY3 1-1922)
- Sequence (Q9UPY3 whole entry): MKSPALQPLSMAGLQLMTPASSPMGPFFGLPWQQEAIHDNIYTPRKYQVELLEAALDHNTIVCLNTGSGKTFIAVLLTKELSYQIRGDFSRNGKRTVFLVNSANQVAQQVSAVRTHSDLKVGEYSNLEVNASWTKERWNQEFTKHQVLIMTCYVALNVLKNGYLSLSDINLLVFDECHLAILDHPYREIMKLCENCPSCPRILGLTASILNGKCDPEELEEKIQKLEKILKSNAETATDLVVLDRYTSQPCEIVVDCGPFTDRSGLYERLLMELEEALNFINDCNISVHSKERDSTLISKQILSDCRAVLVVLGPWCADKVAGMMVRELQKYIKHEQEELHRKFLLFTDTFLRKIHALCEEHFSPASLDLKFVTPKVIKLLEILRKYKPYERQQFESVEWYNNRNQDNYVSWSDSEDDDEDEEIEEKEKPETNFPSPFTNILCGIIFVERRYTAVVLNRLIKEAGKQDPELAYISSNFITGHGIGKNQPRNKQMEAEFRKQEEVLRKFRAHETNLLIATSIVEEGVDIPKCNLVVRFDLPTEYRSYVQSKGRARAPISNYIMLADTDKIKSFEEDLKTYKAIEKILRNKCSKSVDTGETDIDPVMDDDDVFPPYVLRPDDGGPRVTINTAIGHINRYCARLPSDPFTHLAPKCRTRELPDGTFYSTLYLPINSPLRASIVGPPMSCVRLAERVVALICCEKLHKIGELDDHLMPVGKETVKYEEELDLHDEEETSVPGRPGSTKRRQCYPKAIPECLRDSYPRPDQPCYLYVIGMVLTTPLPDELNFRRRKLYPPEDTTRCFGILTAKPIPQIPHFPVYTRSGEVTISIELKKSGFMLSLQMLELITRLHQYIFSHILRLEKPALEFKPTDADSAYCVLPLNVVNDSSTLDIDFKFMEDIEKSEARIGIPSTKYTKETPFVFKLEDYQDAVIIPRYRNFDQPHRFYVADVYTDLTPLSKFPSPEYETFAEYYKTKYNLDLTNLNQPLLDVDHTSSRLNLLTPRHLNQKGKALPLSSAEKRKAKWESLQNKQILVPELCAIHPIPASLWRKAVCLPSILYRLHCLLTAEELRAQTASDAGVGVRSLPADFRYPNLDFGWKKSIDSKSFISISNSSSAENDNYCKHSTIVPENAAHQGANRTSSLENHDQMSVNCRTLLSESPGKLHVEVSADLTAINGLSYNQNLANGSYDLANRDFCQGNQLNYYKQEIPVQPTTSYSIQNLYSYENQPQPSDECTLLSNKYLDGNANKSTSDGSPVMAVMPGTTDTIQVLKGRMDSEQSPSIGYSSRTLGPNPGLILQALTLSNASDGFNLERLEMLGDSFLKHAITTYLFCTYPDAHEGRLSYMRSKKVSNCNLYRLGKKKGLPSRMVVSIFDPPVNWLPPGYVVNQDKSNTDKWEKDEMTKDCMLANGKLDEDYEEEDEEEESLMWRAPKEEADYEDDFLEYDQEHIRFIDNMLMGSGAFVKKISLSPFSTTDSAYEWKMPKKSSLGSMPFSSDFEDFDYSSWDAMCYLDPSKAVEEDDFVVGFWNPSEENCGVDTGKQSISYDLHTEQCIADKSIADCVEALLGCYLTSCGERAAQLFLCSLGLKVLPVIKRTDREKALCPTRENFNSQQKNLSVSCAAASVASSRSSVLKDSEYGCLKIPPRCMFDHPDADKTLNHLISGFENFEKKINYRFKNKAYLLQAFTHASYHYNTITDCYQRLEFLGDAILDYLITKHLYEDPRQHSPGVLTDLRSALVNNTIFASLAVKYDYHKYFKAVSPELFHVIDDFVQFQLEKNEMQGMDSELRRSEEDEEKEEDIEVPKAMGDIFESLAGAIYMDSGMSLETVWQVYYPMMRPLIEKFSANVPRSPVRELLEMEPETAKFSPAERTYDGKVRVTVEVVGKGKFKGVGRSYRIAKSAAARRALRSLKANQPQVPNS
- PROTOCOL: filter binding
pKd: −log10 of the molar value.
// values below are reported pKd
MEASURED PROPERTY: pKd

>  <BINDER>
pre-hlet-7a-1 (structured_RNA) RNA: UGAGGUAGUAGGUUGUAUAGUUUUAGGGUCACACCCACCACUGGGAGAUAACUAUACAAUCUACUGUCUUACC

>  <MEASURED PROPERTY>
pKd

>  <MEAS VALUE>
7.41

$$$$
>  <BINDER>
21ab (siRNA/product mimic) (dsRNA) RNA 1: UAUACAAUGUGCUAGCUUUCU RNA 2: AAAGCUAGCACAUUGUAUAGU

>  <MEASURED PROPERTY>
pKd

>  <MEAS VALUE>
6.84

$$$$
>  <BINDER>
37ab (dsRNA) RNA 1: UGAGGUAGUAGGUUGUAUAGUUUGAAAGUUCACGAUU RNA 2: UCGUGAACUUUCAAACUAUACAACCUACUACCUCAUU

>  <MEASURED PROPERTY>
pKd

>  <MEAS VALUE>
7.28

$$$$
